The reported numbers originate from PubChem BioAssay (NCI).

Test system: SF-539 CNS
Experimental Details: NCI-60 one-dose screen, 48 h
Measurement Setup: 10 µM unless noted
Compounds without any hit were thinned out: in the full panel of roughly 83,000, 20% have a hit. Calls of active or inactive are those of the source. The calls were made as follows: active = growth percent below 10; inactive = the rest.
Pick one: active, inactive

Answered cases to consult:
compound="CC[C@]1(O)CC2CN(CCc3c([nH]c4ccccc34)[C@@](C(=O)OC)(c3cc4c(cc3OC)N(C=O)[C@H]3[C@@](O)(C(=O)OC)[C@H](OC(C)=O)[C@]5(CC)C=CCN6CC[C@]43[C@@H]65)C2)C1 (stereo partly drawn)" category=active
compound="COc1cc2c(c(OC)c1)C1c3cc(OC)ccc3NC(=O)N1CC2 (stereo not drawn)" category=inactive
compound=CCOC(=O)/C(C#N)=C(\C)CCc1ccccc1 category=inactive
compound=CC1(C)[C@@H](NOCCCN)CC[C@]2(C)[C@H]3C(=O)C=C4[C@@H]5C[C@](C)(C(=O)O)CC[C@]5(C)CC[C@@]4(C)[C@]3(C)CC[C@@H]12 category=active

Ask | Assay outcome for `COc1ccc2[nH]c(C(=O)N3CCN(C(=O)OCc4ccc5c(Br)cc(Br)c(O)c5n4)CC3)cc2c1` : what was it?
Reply | active

Ask | For CCOC(=O)c1nn(C2CCCCO2)c2ccc(NC(=O)CSc3nc4ccccc4c(=O)[nH]3)cc12 (stereo not drawn) , what call appears in the results of this test?
Reply | inactive

Ask | What is the recorded call for this compound in the test? `Cn1cc(-c2noc(C(=O)c3cn(C)c4ncccc34)n2)c2ccccc21`
Reply | inactive

Ask | Dear colleague, could you share the recorded outcome for `COc1ncc(-c2ccc3nccc(C#CCCCCC(=O)NO)c3c2)cc1NS(=O)(=O)c1ccc(F)cc1F` when you have a moment?
Reply | active

Ask | Given `CCOC(=O)c1cc(C(=O)c2ccc(OC)c(OC)c2)n2ccc(-c3ccccn3)cc12` , state the outcome it received in this test.
Reply | inactive
